// data source = ChEMBL document CHEMBL1147331

- Protocol Summary: Selectivity index, ratio of ED50 for human LNCaP cells to ED50 for chloroquine-sensitive Plasmodium falciparum D6
- Format: toxicity, cell-based
- Recorded Conditions: read-out: Ratio ED50
Label fulfilled when selectivity ratio is at or above 40; otherwise label not fulfilled.

{"Molecule": "OC(c1cc(C(F)(F)F)nc2c(C(F)(F)F)cccc12)C1CCCCN1 (configuration not stated)", "Class Assignment": "fulfilled"}

Please tell me: is the molecule `COc1ccc2cc1Oc1ccc(cc1)C[C@H]1c3c(cc(OC)c(OC)c3Oc3cc4c(cc3OC)CCN[C@@H]4C2)CCN1C` at or over 40 in terms of selectivity ratio? fulfilled

Please tell me: is the molecule `COc1ccc2cc1Oc1ccc(cc1)C[C@H]1c3cc(c(OC)cc3CCN1C)Oc1c(OC)c(OC)cc3c1[C@@H](C2)N(C)CC3` at or over 40 in terms of selectivity ratio? fulfilled

Please tell me: is the molecule `COc1ccc2cc1Oc1ccc(cc1)C[C@H]1c3c(cc(OC)c(OC)c3Oc3cc4c(cc3OC)CCN(C)[C@@H]4C2)CCN1C` at or over 40 in terms of selectivity ratio? not fulfilled

Please tell me: is the molecule `COc1ccc2cc1Oc1ccc(cc1)C[C@H]1c3c(cc(OC)c(O)c3Oc3cc4c(cc3OC)CCN[C@@H]4C2)CCN1C` at or over 40 in terms of selectivity ratio? fulfilled

Please tell me: is the molecule `COc1ccc2cc1Oc1ccc(cc1)C[C@H]1c3c(cc(OC)c4c3Oc3cc5c(cc3O4)CCN(C)[C@@H]5C2)CCN1C` at or over 40 in terms of selectivity ratio? not fulfilled

###

// CC50 at 72 h lookup, one value per entry
- Protocol Summary: Cytotoxicity against human LNCAP cells after 3 days by sulforhodamine B assay
- Format: cell-based
- Recorded Conditions: read-out: ED50
Write it as a number; the unit mg/L goes unstated.

Please review the following examples before continuing.
{"Smiles Representation": "COc1ccc2cc1Oc1ccc(cc1)C[C@H]1c3cc(c(OC)cc3CCN1C)Oc1c(O)c(OC)cc3c1[C@@H](C2)N(C)CC3", "Uom": "mg/L", "CC50 at 72 h": 5.9}
{"Smiles Representation": "COc1ccc2cc1Oc1ccc(cc1)C[C@H]1c3c(cc(OC)c4c3Oc3cc5c(cc3O4)CCN=C5C2)CCN1C", "Uom": "mg/L", "CC50 at 72 h": 2}
{"Smiles Representation": "COc1ccc2cc1Oc1ccc(cc1)C[C@H]1c3c(cc(OC)c(O)c3Oc3cc4c(cc3OC)CCN(C)[C@@H]4C2)CCN1C", "Uom": "mg/L", "CC50 at 72 h": 3.4}
{"Smiles Representation": "COc1ccc2cc1Oc1ccc(cc1)C[C@H]1c3cc(c(OC)cc3CCN1C)Oc1c(O)c(OC)cc3c1[C@@H](C2)NCC3", "Uom": "mg/L", "CC50 at 72 h": 6.6}
{"Smiles Representation": "COc1ccc2cc1Oc1ccc(cc1)C[C@H]1c3c(cc(OC)c(OC)c3Oc3cc4c(cc3OC)CCN(C)[C@@H]4C2)CCN1C", "Uom": "mg/L", "CC50 at 72 h": 5}

Turning to the following molecule.
For the molecule `COc1ccc2cc1Oc1ccc(cc1)C[C@H]1c3c(cc4c(c3Oc3cc5c(cc3OC)CCN(C)[C@@H]5C2)OCO4)CCN1C` , give its reported CC50 at 72 h. 5.6
